Target: T1, ZFP SBS#1255 (synthetic)
T1 chain: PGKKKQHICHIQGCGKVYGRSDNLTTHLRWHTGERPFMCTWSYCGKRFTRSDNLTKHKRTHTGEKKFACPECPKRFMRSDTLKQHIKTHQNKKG
Test: EMSA
Conditions: tags: MBP fusion
PROPERTY: Kd (nM)
Numbers only, in nM.

Name the reported Kd value associated with the binder ACGTAGTAG (dsDNA) DNA 1: ACGTAGTAG DNA 2: CTACTACGT 0.69

Origin of measurements: patent US20030068675
